Molecular target: NA from A/H3N2 (Influenza A virus)
Assay: biochemical
Format: biochemical, seasonal A/H3N2
recorded endpoint: Inhibition rate, 10 μM (%)
Write the number in % without appending the unit.

| compound | units label | Inhibition rate, 10 μM |
| --- | --- | --- |
| CCC(CC)O[C@@H]1C=C(C(=O)O)C[C@H](NC(=O)c2cnn(-c3ccccc3C)c2)[C@H]1NC(C)=O [OC-016] | % | 38.37 |
| CCC(CC)O[C@@H]1C=C(C(=O)O)C[C@H](NC(=O)c2cc(C3CC3)nn2-c2ccc(Br)cc2)[C@H]1NC(C)=O [OC-025] | % | 37.17 |
| CCC(CC)O[C@@H]1C=C(C(=O)O)C[C@H](NC(=O)c2cnn(-c3ccc(Cl)cc3)c2)[C@H]1NC(C)=O [OC-026] | % | 25.67 |
| CCC(CC)O[C@@H]1C=C(C(=O)O)C[C@H](NC(=O)c2cc(-c3cccs3)n[nH]2)[C@H]1NC(C)=O [OC-014] | % | 40.02 |
| CCC(CC)O[C@@H]1C=C(C(=O)O)C[C@H](NC(=O)c2cnn(-c3ccc(OC)cc3)c2)[C@H]1NC(C)=O [OC-022] | % | 34.15 |

INPUT: Looking for the measured Inhibition rate, 10 μM of CCC(CC)O[C@@H]1C=C(C(=O)O)C[C@H](NC(=O)c2cnn(Cc3ccc(OC)cc3)c2)[C@H]1NC(C)=O [OC-004] , can you help?
OUTPUT: 26.79

INPUT: Try this compound next: CCC(CC)O[C@@H]1C=C(C(=O)O)C[C@H](NC(=O)c2cc(C3CC3)nn2-c2ccccc2)[C@H]1NC(C)=O [OC-013]
OUTPUT: 30.41

----------
Biological target: NA from A/H3N2 (Influenza A virus, UniProt O91745)
Sequence (O91745 whole entry, looked up): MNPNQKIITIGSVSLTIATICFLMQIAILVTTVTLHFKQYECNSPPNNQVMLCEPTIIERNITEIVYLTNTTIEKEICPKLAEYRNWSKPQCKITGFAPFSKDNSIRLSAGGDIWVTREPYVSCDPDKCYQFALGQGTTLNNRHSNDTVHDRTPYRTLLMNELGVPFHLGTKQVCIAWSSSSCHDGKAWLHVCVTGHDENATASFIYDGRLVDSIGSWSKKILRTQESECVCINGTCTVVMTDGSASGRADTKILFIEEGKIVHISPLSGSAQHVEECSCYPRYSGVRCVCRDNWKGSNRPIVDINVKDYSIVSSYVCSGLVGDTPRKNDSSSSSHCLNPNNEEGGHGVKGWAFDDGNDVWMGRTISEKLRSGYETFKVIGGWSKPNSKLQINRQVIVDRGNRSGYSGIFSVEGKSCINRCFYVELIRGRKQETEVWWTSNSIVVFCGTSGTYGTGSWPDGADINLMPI
Assay: biochemical
Format: biochemical, seasonal A/H3N2
recorded endpoint: Inhibition rate, 1 μM
The answer consists of two parts: a number and, after it, its unit.

| smiles record | reported value |
| --- | --- |
| CCC(CC)O[C@@H]1C=C(C(=O)O)C[C@H](NC(=O)c2cc(C3CC3)n(-c3ccccc3C)n2)[C@H]1NC(C)=O | 8.06% |
| CCC(CC)O[C@@H]1C=C(C(=O)O)C[C@H](NC(=O)c2cc(-c3ccc(Cl)cc3)nn2CC2CCCCC2)[C@H]1NC(C)=O | 11.62% |

INPUT: Looking for the measured Inhibition rate, 1 μM of `CCC(CC)O[C@@H]1C=C(C(=O)O)C[C@H](NC(=O)c2cc(C3CC3)n(-c3ccc(Br)cc3)n2)[C@H]1NC(C)=O` , can you help?
OUTPUT: 5.84%

----------
Molecular target: NA from A/H3N2 (Influenza A virus, UniProt O91745)
Test: biochemical
Format: biochemical, seasonal A/H3N2
Details: Table 4, Example 34
recorded endpoint: pIC50
Recall that pIC50 is obtained by taking minus log10 of the concentration measured in molar.

| smiles record | assay target | reported value |
| --- | --- | --- |
| CCC(CC)O[C@@H]1C=C(C(=O)O)C[C@H](NC(=O)c2cc(C3CC3)n(-c3ccccc3C)n2)[C@H]1NC(C)=O | NA from A/H3N2 (Influenza A virus, UniProt O91745) | 4.64 |

INPUT: Looking for the measured pIC50 of `CCC(CC)O[C@@H]1C=C(C(=O)O)C[C@H](NC(=O)c2cnn(-c3ccc(C)cc3)c2)[C@H]1NC(C)=O` , can you help?
OUTPUT: 4.36

INPUT: Try this compound next: `CCC(CC)O[C@@H]1C=C(C(=O)O)C[C@H](NC(=O)c2cc(C3CC3)nn2-c2ccccc2C)[C@H]1NC(C)=O`
OUTPUT: 4.77

INPUT: Try this compound next: `CCC(CC)O[C@@H]1C=C(C(=O)O)C[C@H](NC(=O)c2cc(-c3ccc(F)cc3)n[nH]2)[C@H]1NC(C)=O`
OUTPUT: 4.94

----------
Biological target: NA from A/H3N2 (Influenza A virus, UniProt O91745)
Test: biochemical
Assay type: biochemical, seasonal A/H3N2
recorded endpoint: Inhibition rate, 1 μM (%)
Write the number in % without appending the unit.

INPUT: Looking for the measured Inhibition rate, 1 μM of `CCC(CC)O[C@@H]1C=C(C(=O)O)C[C@H](NC(=O)c2cnn(Cc3cccc(OC)c3)c2)[C@H]1NC(C)=O` , can you help?
OUTPUT: 6.12

INPUT: Try this compound next: `CCC(CC)O[C@@H]1C=C(C(=O)O)C[C@H](NC(=O)c2cc(C3CC3)n(-c3ccccc3)n2)[C@H]1NC(C)=O`
OUTPUT: 7.13

INPUT: Try this compound next: `CCC(CC)O[C@@H]1C=C(C(=O)O)C[C@H](NC(=O)c2cc(C3CC3)n(-c3cccc(C)c3)n2)[C@H]1NC(C)=O`
OUTPUT: 6.24

INPUT: Try this compound next: `CCC(CC)O[C@@H]1C=C(C(=O)O)C[C@H](NC(=O)c2cc(-c3ccc(Cl)cc3)nn2CC2CC2)[C@H]1NC(C)=O`
OUTPUT: 16.52

----------
Biological target: NA from A/H3N2 (Influenza A virus, UniProt O91745)
Experiment: biochemical
Type: biochemical, seasonal A/H3N2
Inhibition rate, 10 μM reference
The answer consists of two parts: a number and, after it, its unit.

Recorded Inhibition rate, 10 μM, per entry:
| compound | Inhibition rate, 10 μM |
| --- | --- |
| CCC(CC)O[C@@H]1C=C(C(=O)O)C[C@H](NC(=O)c2cnn(Cc3cccc(Cl)c3)c2)[C@H]1NC(C)=O [OC-003] | 23.88% |
| CCC(CC)O[C@@H]1C=C(C(=O)O)C[C@H](NC(=O)c2cc(C3CC3)n(-c3ccc(Br)cc3)n2)[C@H]1NC(C)=O [OC-024] | 42.68% |
| CCC(CC)O[C@@H]1C=C(C(=O)O)C[C@H](NC(=O)c2cc(-c3ccc(Cl)cc3)n[nH]2)[C@H]1NC(C)=O [OC-011] | 50.43% |

INPUT: Which measured Inhibition rate, 10 μM belongs to CCC(CC)O[C@@H]1C=C(C(=O)O)C[C@H](NC(=O)c2cc(-c3ccccc3)n[nH]2)[C@H]1NC(C)=O [OC-008] , tested on NA from A/H3N2 (Influenza A virus, UniProt O91745)?
OUTPUT: 42.81%
